Measured values drawn from the supplement of paper PMC10567573 for this set.

Reported protein stability index values for the following variants.
B1: TRIM35 (parent)
chain: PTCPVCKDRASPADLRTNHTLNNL

Variants of: B1
Assay: protein stability index of a GFP-peptide fusion (GPS, HEK-293T) (PSI 1-6); higher = more stable;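 note: lentivirally expressed fusions sorted by FACS into six bins by GFP to DsRed ratio, PSI derived from sequencing read proportions per bin multiplied by bin number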
Details: c terminus: a fixed tail appended
The answer should be written as a number, with no unit following it.

S11T	3.04

Prompt line: Report protein stability index for `C6R` please.
Response line: 4.05

Prompt line: Report protein stability index for `P12R` please.
Response line: 2.36

Prompt line: Report protein stability index for `P1D` please.
Response line: 3.2

Prompt line: Report protein stability index for `A13F` please.
Response line: 2.26

Prompt line: Report protein stability index for `D14C` please.
Response line: 3.9

Prompt line: Report protein stability index for `D8T` please.
Response line: 2.67

Prompt line: Report protein stability index for `D8N` please.
Response line: 2.65

Prompt line: Report protein stability index for `S11F` please.
Response line: 2.55

Prompt line: Report protein stability index for `K7D` please.
Response line: 3.65

Prompt line: Report protein stability index for `L15E` please.
Response line: 3.86

Prompt line: Report protein stability index for `D14V` please.
Response line: 2.54

Prompt line: Report protein stability index for `N22L` please.
Response line: 2.56

Prompt line: Report protein stability index for `D8L` please.
Response line: 2.36

Prompt line: Report protein stability index for `P1E` please.
Response line: 2.75

Prompt line: Report protein stability index for `R16H` please.
Response line: 3.17

Prompt line: Report protein stability index for `P4H` please.
Response line: 3.03

Prompt line: Report protein stability index for `N22E` please.
Response line: 3.73
